# TEST TARGET: hEAG2 channel (Homo sapiens)
# Sequence (Q8NCM2 whole entry): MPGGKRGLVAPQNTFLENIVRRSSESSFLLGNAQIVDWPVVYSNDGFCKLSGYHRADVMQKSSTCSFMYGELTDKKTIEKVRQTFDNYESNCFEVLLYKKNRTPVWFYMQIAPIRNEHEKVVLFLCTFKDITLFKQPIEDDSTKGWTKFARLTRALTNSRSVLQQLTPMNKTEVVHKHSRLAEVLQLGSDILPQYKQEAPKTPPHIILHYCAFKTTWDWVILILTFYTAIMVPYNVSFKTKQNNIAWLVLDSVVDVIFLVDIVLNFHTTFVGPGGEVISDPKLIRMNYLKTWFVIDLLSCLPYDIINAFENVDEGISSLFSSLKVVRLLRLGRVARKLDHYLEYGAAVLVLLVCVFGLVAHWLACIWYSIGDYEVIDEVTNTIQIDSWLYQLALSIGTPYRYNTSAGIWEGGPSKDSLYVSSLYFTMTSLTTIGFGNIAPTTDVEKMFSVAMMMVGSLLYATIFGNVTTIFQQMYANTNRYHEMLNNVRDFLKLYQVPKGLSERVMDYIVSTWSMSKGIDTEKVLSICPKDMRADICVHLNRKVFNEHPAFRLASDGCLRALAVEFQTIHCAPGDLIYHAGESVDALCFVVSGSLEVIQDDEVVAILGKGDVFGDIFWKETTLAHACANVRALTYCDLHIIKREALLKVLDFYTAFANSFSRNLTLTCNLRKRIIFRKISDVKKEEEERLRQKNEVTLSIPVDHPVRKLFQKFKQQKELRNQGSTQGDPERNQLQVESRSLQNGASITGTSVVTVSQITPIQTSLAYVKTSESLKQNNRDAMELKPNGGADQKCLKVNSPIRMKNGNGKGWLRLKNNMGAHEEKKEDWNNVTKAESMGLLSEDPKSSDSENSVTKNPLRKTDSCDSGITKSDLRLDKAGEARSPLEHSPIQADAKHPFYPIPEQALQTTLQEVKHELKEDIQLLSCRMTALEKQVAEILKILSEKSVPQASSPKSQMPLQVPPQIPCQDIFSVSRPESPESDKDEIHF
# PROTOCOL DETAILS: Magnesium dependence of hEAG2 activation, two-electrode voltage clamp in Xenopus oocytes
# CONDITIONS: hEAG2 in Xenopus oocytes; conditioning potential -150 to -60 mV for 5 s before test pulse; extracellular magnesium; read-out: apparent EC50 for the effect of magnesium (Vhalf of activation time versus Mg^2+ concentration)
# Experimental: For Xenopus oocyte expression, the cDNA was cloned into a suitable vector containing the translation initiation sequences and the polyadenylation sequence of Xenopus b-globin. This optimizes the expression in oocytes. The template was prepared by linearization of the construct, and RNA was synthesized using the T7 promotor. […] The currents expressed were then measured 48-96 hours after the injection using two-electrode voltage clamp. […]
REPORTED PROPERTY: pEC50
The quantity pEC50 is defined as the negative base-10 logarithm of the molar concentration.

Recorded pEC50 for [Mg+2] [magnesium] , please? 4.10
